Quick reference: shrunken log2 fold change of the listed items.
- Test system: Escherichia coli TOP10
- Protocol summary: shrunken log2 fold change of peptide-encoding DNA abundance (4.5 h post-induction vs induction); higher = less antimicrobial activity (less host growth inhibition)
- Details: time post-induction: 4.5 h; library: site-saturation at positions 5, 18, 19, 20
Simply state the number, no unit and no words.

1. RRIRPRPPRLPRPRPRPPDCPRP	-0.0878

Return reported shrunken log2 fold change; argument: RRIRTRPPRLPRPRPRPIYFPRP
-0.468

Lookup RRIRIRPPRLPRPRPRPARVPRP
-0.0658

Lookup RRIRMRPPRLPRPRPRPEFWPRP
0.893

Lookup RRIRNRPPRLPRPRPRPEFTPRP
-0.161

Lookup RRIRHRPPRLPRPRPRPSCPPRP
-0.217

Lookup RRIRHRPPRLPRPRPRPWWTPRP
0.00261

====

- Tested on: Escherichia coli TOP10
- Protocol summary: shrunken log2 fold change of peptide-encoding DNA abundance (4.5 h post-induction vs induction); higher = less antimicrobial activity (less host growth inhibition)
- Details: time post-induction: 4.5 h; library: site-saturation at positions 5, 18, 19, 20
Quick reference: shrunken log2 fold change of the listed items.
Simply state the number, no unit and no words.

1. RRIRVRPPRLPRPRPRPIDHPRP	-0.152
2. RRIRHRPPRLPRPRPRPPDCPRP	0.182

Return reported shrunken log2 fold change; argument: RRIRGRPPRLPRPRPRPPNPPRP
0.74

Lookup RRIRYRPPRLPRPRPRPDICPRP
-0.0244

Lookup RRIRKRPPRLPRPRPRPLWIPRP
0.134

====

- Test system: Escherichia coli TOP10
- Protocol summary: shrunken log2 fold change of peptide-encoding DNA abundance (4.5 h post-induction vs induction); higher = less antimicrobial activity (less host growth inhibition)
- Details: time post-induction: 4.5 h; library: site-saturation at positions 5, 18, 19, 20
Measured quantity: shrunken log2 fold change

1) RRIRSRPPRLPRPRPRPWEVPRP	0.188
2) RRIRKRPPRLPRPRPRPFATPRP	0.45
3) RRIRRRPPRLPRPRPRPDYKPRP	-0.284
4) RRIRRRPPRLPRPRPRPKVFPRP	-0.00912
5) RRIRARPPRLPRPRPRPVAKPRP	0.577
6) RRIRTRPPRLPRPRPRPLSVPRP	-0.0398
7) RRIRERPPRLPRPRPRPWIIPRP	-0.269
8) RRIRRRPPRLPRPRPRPAEEPRP	0.618
9) RRIRIRPPRLPRPRPRPSHRPRP	-0.276
10) RRIRHRPPRLPRPRPRPLCGPRP	-0.302

Return reported shrunken log2 fold change; argument: RRIRCRPPRLPRPRPRPCCQPRP
-0.342

Lookup RRIRHRPPRLPRPRPRPEGRPRP
-0.114

Lookup RRIRNRPPRLPRPRPRPCVKPRP
-0.13

====

- Test system: Escherichia coli TOP10
- Protocol summary: shrunken log2 fold change of peptide-encoding DNA abundance (4.5 h post-induction vs induction); higher = less antimicrobial activity (less host growth inhibition)
- Details: time post-induction: 4.5 h; library: site-saturation at positions 5, 18, 19, 20
Measured quantity: shrunken log2 fold change
Simply state the number, no unit and no words.

1) RRIRMRPPRLPRPRPRPLMPPRP	0.13
2) RRIRMRPPRLPRPRPRPFSTPRP	-0.0159

Return reported shrunken log2 fold change; argument: RRIRGRPPRLPRPRPRPKPHPRP
0.854

Lookup RRIRMRPPRLPRPRPRPHARPRP
0.299

====

- Tested on: Escherichia coli TOP10
- Protocol summary: shrunken log2 fold change of peptide-encoding DNA abundance (4.5 h post-induction vs induction); higher = less antimicrobial activity (less host growth inhibition)
- Details: time post-induction: 4.5 h; library: site-saturation at positions 5, 18, 19, 20
Kind request: treat -0.008 as inclusive, so shrunken log2 fold change at -0.008 or higher is Satisfied, anything lower is Not satisfied.

Below are worked cases with known answers.
1) RRIRQRPPRLPRPRPRPSMIPRP	Not satisfied
2) RRIRVRPPRLPRPRPRPSMHPRP	Not satisfied

Kindly determine if shrunken log2 fold change recorded for RRIRYRPPRLPRPRPRPCVQPRP is above or exactly -0.008.
Not satisfied

Lookup RRIRPRPPRLPRPRPRPMGNPRP
Not satisfied

Lookup RRIRIRPPRLPRPRPRPISHPRP
Not satisfied

Lookup RRIRGRPPRLPRPRPRPYMWPRP
Not satisfied

Lookup RRIRFRPPRLPRPRPRPWPFPRP
Not satisfied

====

- Tested on: Escherichia coli TOP10
- Protocol summary: shrunken log2 fold change of peptide-encoding DNA abundance (4.5 h post-induction vs induction); higher = less antimicrobial activity (less host growth inhibition)
- Details: time post-induction: 4.5 h; library: site-saturation at positions 5, 18, 19, 20
Class membership depends on shrunken log2 fold change alone; the intervals are class 1: < -0.1; class 2: ≥ -0.1 and < 0.1; class 3: ≥ 0.1

Below are worked cases with known answers.
1. RRIRRRPPRLPRPRPRPTYRPRP	class 3
2. RRIRPRPPRLPRPRPRPFFMPRP	class 1
3. RRIRNRPPRLPRPRPRPLNHPRP	class 1
4. RRIRKRPPRLPRPRPRPILWPRP	class 3
5. RRIRNRPPRLPRPRPRPWSLPRP	class 2

Lab note: next sequence to report on.
Class label required: RRIRTRPPRLPRPRPRPTSLPRP
class 1

====

- System: Escherichia coli TOP10
- Protocol summary: shrunken log2 fold change of peptide-encoding DNA abundance (4.5 h post-induction vs induction); higher = less antimicrobial activity (less host growth inhibition)
- Details: time post-induction: 4.5 h; library: site-saturation at positions 5, 18, 19, 20
Measured quantity: shrunken log2 fold change
Simply state the number, no unit and no words.

Some solved cases for reference:
1) RRIRARPPRLPRPRPRPGSIPRP	-0.283
2) RRIRWRPPRLPRPRPRPGTVPRP	-0.148
3) RRIRGRPPRLPRPRPRPTTYPRP	0.214
4) RRIRYRPPRLPRPRPRPGFMPRP	-0.279
5) RRIRSRPPRLPRPRPRPTYRPRP	-0.195
6) RRIRTRPPRLPRPRPRPENRPRP	-0.0266
7) RRIRDRPPRLPRPRPRPNYMPRP	-0.216
8) RRIRRRPPRLPRPRPRPLLIPRP	0.145

Query for Escherichia coli TOP10: what shrunken log2 fold change does the record show for RRIRSRPPRLPRPRPRPQLEPRP ?
0.455

Lookup RRIRCRPPRLPRPRPRPLALPRP
-0.621

====

- Test system: Escherichia coli TOP10
- Protocol summary: shrunken log2 fold change of peptide-encoding DNA abundance (4.5 h post-induction vs induction); higher = less antimicrobial activity (less host growth inhibition)
- Details: time post-induction: 4.5 h; library: site-saturation at positions 5, 18, 19, 20
Measured quantity: shrunken log2 fold change
Simply state the number, no unit and no words.

1) RRIRPRPPRLPRPRPRPLSLPRP	0.0584
2) RRIRDRPPRLPRPRPRPMNIPRP	-0.0931
3) RRIRDRPPRLPRPRPRPLGQPRP	0.0401
4) RRIRFRPPRLPRPRPRPKCHPRP	-0.42
5) RRIRNRPPRLPRPRPRPTRWPRP	0.292

Return reported shrunken log2 fold change; argument: RRIRDRPPRLPRPRPRPVKHPRP
-0.0698

====

- Tested on: Escherichia coli TOP10;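 also: peptides expressed intracellularly from a pBAD plasmid library in pooled LB shake-flask culture, induced with 0.3% L-arabinose, DNA abundance read by NGS, three biological replicates, DESeq2 with apeglm shrinkage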
- Protocol summary: shrunken log2 fold change of peptide-encoding DNA abundance (4.5 h post-induction vs induction); higher = less antimicrobial activity (less host growth inhibition)
- Details: time post-induction: 4.5 h; library: site-saturation at positions 5, 18, 19, 20
Quick reference: shrunken log2 fold change of the listed items.
Simply state the number, no unit and no words.

1. RRIRSRPPRLPRPRPRPGTMPRP	-0.315
2. RRIRKRPPRLPRPRPRPWHCPRP	0.0258
3. RRIRMRPPRLPRPRPRPCLSPRP	-0.0592
4. RRIRIRPPRLPRPRPRPWGIPRP	-0.109
5. RRIRQRPPRLPRPRPRPPPKPRP	0.876
6. RRIRNRPPRLPRPRPRPQTNPRP	-0.276
7. RRIRPRPPRLPRPRPRPIPRPRP	0.449
8. RRIRWRPPRLPRPRPRPLFLPRP	-0.318
9. RRIRIRPPRLPRPRPRPVTMPRP	-1.03
10. RRIRWRPPRLPRPRPRPLEGPRP	-0.158

Return reported shrunken log2 fold change; argument: RRIRNRPPRLPRPRPRPFHSPRP
-0.0225

Lookup RRIRSRPPRLPRPRPRPSVMPRP
-0.391

Lookup RRIRWRPPRLPRPRPRPCFYPRP
-0.249

Lookup RRIRDRPPRLPRPRPRPGNGPRP
0.12

Lookup RRIRHRPPRLPRPRPRPDFKPRP
-0.127
